Cited source: patent US20220017627A1

Target: T1, hIL-7R (Example 11) (human, UniProt P16871 21-239)
T1 construct: Called full length hIL-7R for the mRNA display and hIL-7R for the Biacore runs; also called full length hIL-7R; human IL-7R
T1 chain: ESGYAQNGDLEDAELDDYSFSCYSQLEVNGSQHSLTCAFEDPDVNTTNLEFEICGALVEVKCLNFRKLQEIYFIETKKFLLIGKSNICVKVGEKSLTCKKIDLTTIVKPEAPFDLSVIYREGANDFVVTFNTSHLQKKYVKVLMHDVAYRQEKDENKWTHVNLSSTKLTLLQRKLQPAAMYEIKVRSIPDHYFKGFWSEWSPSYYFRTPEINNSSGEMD
Test: NGS enrichment ratio of the mutation in the scFv library selected at 0.2 nM hIL-7R
0.2 nM NGS reference
Reply with just the number.

1) 18B1 LC G28A (antibody, human IgG1, kappa, V domains shown) VH: EVQLVESGGGLVQPGRSLRLSCAASGFTFDDHAMHWVRQAPGKGLEWVSGISWNSRGIGYADSVKGRFTIFRDNAKNSLYLQMNSLRAEDTALYYCAKDEYSRGYYVLDVWGQGTTVTVSS VL: AIQLTQSPSSLSASVGDRVTITCRASQAISSALAWYQQKPGKAPKLLIYDASSLESGVPSRFSGSGSGTDFTLTISSLQPEDFATYYCQQFNSYPLWITFGQGTRLEIKR	1.05
2) 18B1 LC N92A (antibody, human IgG1, kappa, V domains shown) VH: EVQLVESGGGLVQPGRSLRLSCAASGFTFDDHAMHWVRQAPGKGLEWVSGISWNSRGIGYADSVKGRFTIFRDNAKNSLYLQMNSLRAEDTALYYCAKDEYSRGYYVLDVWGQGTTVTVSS VL: AIQLTQSPSSLSASVGDRVTITCRASQGISSALAWYQQKPGKAPKLLIYDASSLESGVPSRFSGSGSGTDFTLTISSLQPEDFATYYCQQFASYPLWITFGQGTRLEIKR	0.34

State its 0.2 nM NGS: 18B1 LC S93A (antibody, human IgG1, kappa, V domains shown) VH: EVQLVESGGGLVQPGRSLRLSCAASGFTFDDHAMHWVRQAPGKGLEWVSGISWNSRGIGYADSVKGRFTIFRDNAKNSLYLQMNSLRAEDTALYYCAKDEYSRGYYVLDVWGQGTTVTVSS VL: AIQLTQSPSSLSASVGDRVTITCRASQGISSALAWYQQKPGKAPKLLIYDASSLESGVPSRFSGSGSGTDFTLTISSLQPEDFATYYCQQFNAYPLWITFGQGTRLEIKR
1.84

Annotate the binder 18B1 LC T97A (antibody, V domains shown, copies: 2 + 2) VH: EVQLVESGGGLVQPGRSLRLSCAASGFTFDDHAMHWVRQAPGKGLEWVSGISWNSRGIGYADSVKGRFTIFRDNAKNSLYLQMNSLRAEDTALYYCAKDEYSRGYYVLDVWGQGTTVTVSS VL: AIQLTQSPSSLSASVGDRVTITCRASQGISSALAWYQQKPGKAPKLLIYDASSLESGVPSRFSGSGSGTDFTLTISSLQPEDFATYYCQQFNSYPLWIAFGQGTRLEIKR with its measured 0.2 nM NGS.
0.92

Annotate the binder 18B1 LC L33A (antibody, human IgG1, kappa, V domains shown) VH: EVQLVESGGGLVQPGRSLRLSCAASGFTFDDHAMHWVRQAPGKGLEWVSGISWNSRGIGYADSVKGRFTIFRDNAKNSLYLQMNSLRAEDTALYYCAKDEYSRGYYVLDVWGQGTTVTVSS VL: AIQLTQSPSSLSASVGDRVTITCRASQGISSAAAWYQQKPGKAPKLLIYDASSLESGVPSRFSGSGSGTDFTLTISSLQPEDFATYYCQQFNSYPLWITFGQGTRLEIKR with its measured 0.2 nM NGS.
1.05
